# Tested on: guineagrass
# Measurement notes: Test F preemergence test
# Type: in vivo, Panicum maximum
# Test settings: Preemergence; 31 g ai/ha; scale 0 to 100
Plant response rating, Guineagrass values, listed per item

Compound	Plant response rating, Guineagrass
Cn1nc(C(F)(F)F)c(CS(=O)(=O)c2cccc[n+]2[O-])c1OC(F)F [Compound 4]	100
Cn1nc(C(F)(F)F)c(C[S+]([O-])c2ccc(F)c[n+]2[O-])c1OC(F)F (stereo not drawn) [Compound 58]	90
Cc1cc[n+]([O-])c(S(=O)(=O)C(Cl)c2c(C(F)(F)F)nn(C)c2OCC(F)(F)F)c1 (racemic) [Compound 37]	75
CC(Oc1c(C[S+]([O-])c2cccc[n+]2[O-])c(C(F)(F)F)nn1C)C(F)(F)F (stereo not drawn) [Compound 77]	80
CC(Oc1c(CS(=O)(=O)c2cccc[n+]2[O-])c(C(F)(F)F)nn1C)C(F)(F)F (stereo not drawn) [Compound 82]	70
Cn1nc(C(F)(F)F)c(C[S+]([O-])c2ccc(Cl)c[n+]2[O-])c1OC(F)F (stereo not drawn) [Compound 6]	100
Cn1nc(OC(F)F)c(CS(=O)(=O)c2cccc[n+]2[O-])c1C(F)(F)F [Compound 80]	98
CCc1cc[n+]([O-])c(S(=O)(=O)Cc2c(C(F)(F)F)nn(C)c2OCC(F)(F)F)c1 [Compound 60]	35
Cc1cc[n+]([O-])c([S+]([O-])Cc2c(C(F)(F)F)nn(C)c2OCC(F)(F)F)c1 (racemic) [Compound 30]	100

###

# System: Italian ryegrass
# Measurement notes: Test F preemergence test
# Format: in vivo, Lolium multiflorum
# Test settings: 16 g ai/ha, preemergence; scale 0 to 100
# Plant response rating, Ryegrass, Italian per record follows

Compound	Measured on	Plant response rating, Ryegrass, Italian
Cc1cc[n+]([O-])c(S(=O)(=O)C(Cl)c2c(C(F)(F)F)nn(C)c2OCC(F)(F)F)c1 (racemic)	Italian ryegrass	20
Cn1nc(C(F)(F)F)c(C[S+]([O-])c2ccc(Cl)c[n+]2[O-])c1OCC(F)(F)F (racemic)	Italian ryegrass	50
Cn1nc(OC(F)F)c(CS(=O)(=O)c2cccc[n+]2[O-])c1C(F)(F)F	Italian ryegrass	15
CC(Oc1c(C[S+]([O-])c2ccc(Cl)c[n+]2[O-])c(C(F)(F)F)nn1C)C(F)(F)F (centres unmarked)	Italian ryegrass	100
Cn1nc(C(F)(F)F)c(C[S+]([O-])c2ccc(F)c[n+]2[O-])c1OCC(F)(F)F (centres unmarked)	Italian ryegrass	40

###

# Test system: wheat
# Measurement notes: Test A pre-/postemergence greenhouse test
# Format: in vivo, Triticum aestivum
# Test settings: Postemergence, 125 g ai/ha; 0 to 100 scale, 0 is no effect, 100 is complete control

Compound	Wheat plant response rating
Cn1nc(C(F)(F)F)c(C[S+]([O-])c2ccc(Br)c[n+]2[O-])c1OC(F)F (racemic) [Compound 16]	60
Cc1cc[n+]([O-])c([S+]([O-])Cc2c(C(F)(F)F)nn(C)c2OC(F)F)c1 (stereo not drawn) [Compound 1]	70
Cn1nc(C(F)(F)F)c(C[S+]([O-])c2cc(C(F)(F)F)cc[n+]2[O-])c1Cl (racemic) [Compound 34]	0
Cn1nc(C(F)(F)F)c(C[S+]([O-])c2cccc[n+]2[O-])c1Cl (stereo not drawn) [Compound 8]	30
Cn1nc(C(F)(F)F)c(C[S+]([O-])c2cccc[n+]2[O-])c1OC(F)F (stereo not drawn) [Compound 3]	60
Cn1nc(C(F)(F)F)c(CS(=O)(=O)c2cc(F)cc[n+]2[O-])c1Cl [Compound 41]	0

###

# Tested on: crabgrass
# Measurement notes: Test A pre-/postemergence greenhouse test
# Assay type: in vivo, Digitaria sanguinalis
# Test settings: Preemergence, 500 g ai/ha; 0 to 100 scale where 0 is no effect and 100 is complete control
Endpoint: Plant response rating, Crabgrass, Large

Compound	Endpoint	Numeric readout
Cn1nc(C(F)(F)F)c(C[S+]([O-])c2cccc[n+]2[O-])c1OCC(F)(F)F (racemic)	Plant response rating, Crabgrass, Large	100
Cc1cc[n+]([O-])c(S(=O)(=O)Cc2c(C(F)(F)F)nn(C)c2OCC(F)(F)C(F)(F)F)c1	Plant response rating, Crabgrass, Large	90
CC(c1c(C(F)(F)F)nn(C)c1OC(F)F)S(=O)(=O)c1cccc[n+]1[O-] (stereo not shown)	Plant response rating, Crabgrass, Large	100
Cn1nc(C(F)(F)F)c(C[S+]([O-])c2ccc(F)c[n+]2[O-])c1Cl (stereo not shown)	Plant response rating, Crabgrass, Large	90

###

As shown below, each of these compounds has a reported Plant response rating, Barnyardgrass value.
# Test system: barnyardgrass
# Measurement notes: Test C flooded paddy test
# Format: in vivo, Echinochloa crus-galli
# Test settings: Flood, 250 g ai/ha; scale 0 to 100, 0 no effect, 100 complete control; 13 to 15 days

Compound	Measured on	Plant response rating, Barnyardgrass
CC(c1c(C(F)(F)F)nn(C)c1OCC(F)(F)F)S(=O)(=O)c1cccc[n+]1[O-] (racemic)	barnyardgrass	80
Cn1nc(C(F)(F)F)c(C[S+]([O-])c2ccc(F)c[n+]2[O-])c1OC(F)F (stereo not drawn)	barnyardgrass	85
Cn1nc(C(F)(F)F)c(CS(=O)(=O)c2cccc[n+]2[O-])c1OCC(F)(F)C(F)(F)F	barnyardgrass	0
Cn1nc(C(F)(F)F)c(C[S+]([O-])c2cccc[n+]2[O-])c1OCC(F)(F)C(F)(F)F (stereo not drawn)	barnyardgrass	50
Cn1nc(C(F)(F)F)c(C[S+]([O-])c2cc(Cl)cc[n+]2[O-])c1Cl (racemic)	barnyardgrass	65
Cn1nc(C(F)(F)F)c(CS(=O)(=O)c2ccc(F)c[n+]2[O-])c1OC(F)F	barnyardgrass	40
Cn1nc(C(F)(F)F)c(C(Cl)S(=O)(=O)c2cccc[n+]2[O-])c1OCC(F)(F)F (racemic)	barnyardgrass	90
Cn1nc(OC(F)F)c(CS(=O)(=O)c2cccc[n+]2[O-])c1C(F)(F)F	barnyardgrass	60
Cn1nc(C(F)(F)F)c(CS(=O)(=O)c2ccc(Cl)c[n+]2[O-])c1OCC(F)(F)F	barnyardgrass	65
Cn1nc(C(F)(F)F)c(C[S+]([O-])c2cc(C(F)(F)F)cc[n+]2[O-])c1Cl (racemic)	barnyardgrass	30
CCn1nc(C(F)(F)F)c(C[S+]([O-])c2cc(C)cc[n+]2[O-])c1OCC(F)(F)F (racemic)	barnyardgrass	70
C#CCOc1c(C[S+]([O-])c2cccc[n+]2[O-])c(C(F)(F)F)nn1C (stereo not drawn)	barnyardgrass	20
Cc1cc[n+]([O-])c(S(=O)(=O)Cc2c(C(F)(F)F)nn(C)c2OC(C)C(F)(F)F)c1 (stereo not drawn)	barnyardgrass	0
Cn1nc(C(F)(F)F)c(C[S+]([O-])c2c(F)ccc[n+]2[O-])c1Cl (stereo not drawn)	barnyardgrass	0
Cn1nc(C(F)(F)C(F)(F)F)c(CS(=O)(=O)c2ccc(Cl)c[n+]2[O-])c1OCC(F)(F)F	barnyardgrass	0
CCn1nc(C(F)(F)F)c(C(C)S(=O)(=O)c2cccc[n+]2[O-])c1OCC(F)(F)F (stereo not drawn)	barnyardgrass	75
Cn1nc(C(F)(F)F)c(C[S+]([O-])c2cc(Br)cc[n+]2[O-])c1Cl (racemic)	barnyardgrass	40
Cc1cc[n+]([O-])c(S(=O)(=O)Cc2c(C(F)(F)F)nn(CC(F)(F)F)c2Cl)c1	barnyardgrass	0
Cc1cc[n+]([O-])c(S(=O)(=O)Cc2c(C(F)(F)C(F)(F)F)nn(C)c2OCC(F)(F)F)c1	barnyardgrass	20
CCn1nc(C(F)(F)F)c(CS(=O)(=O)c2cc(C)cc[n+]2[O-])c1OCC(F)(F)F	barnyardgrass	20
Cc1cc(S(=O)(=O)Cc2c(C(F)(F)F)nn(C)c2OCC(F)(F)F)[n+]([O-])cc1Cl	barnyardgrass	20
Cc1cc[n+]([O-])c([S+]([O-])Cc2c(C(F)(F)F)nn(CC(F)(F)F)c2Cl)c1 (stereo not drawn)	barnyardgrass	0
Cc1cc[n+]([O-])c(S(=O)(=O)Cc2c(C(F)(F)F)nn(C)c2OCC(F)F)c1	barnyardgrass	0
[O-][n+]1ccccc1[S+]([O-])Cc1c(C(F)(F)F)nn(CC(F)(F)F)c1Cl (stereo not drawn)	barnyardgrass	60
Cc1cc[n+]([O-])c([S+]([O-])Cc2c(C(F)(F)F)nn(C)c2OC(C)C(F)(F)F)c1 (stereo not drawn)	barnyardgrass	30
Cc1cc[n+]([O-])c(S(=O)(=O)Cc2c(C(F)(F)F)nn(C)c2OCC(F)(F)C(F)(F)F)c1	barnyardgrass	0
Cn1nc(C(F)(F)C(F)(F)F)c(C[S+]([O-])c2cccc[n+]2[O-])c1OCC(F)(F)F (stereo not drawn)	barnyardgrass	70
CCc1cc[n+]([O-])c([S+]([O-])Cc2c(C(F)(F)F)nn(C)c2OCC(F)(F)F)c1 (stereo not drawn)	barnyardgrass	60
Cc1cc[n+]([O-])c(S(=O)(=O)Cc2c(C(F)(F)F)nn(C)c2OCC(F)(F)F)c1	barnyardgrass	75
Cn1nc(C(F)(F)F)c(CS(=O)(=O)c2cc(C(C)(C)C)cc[n+]2[O-])c1OCC(F)(F)F	barnyardgrass	0
